# assayed-system: TIE2 (Homo sapiens, UniProt Q02763)
# Sequence (Q02763 23-1124): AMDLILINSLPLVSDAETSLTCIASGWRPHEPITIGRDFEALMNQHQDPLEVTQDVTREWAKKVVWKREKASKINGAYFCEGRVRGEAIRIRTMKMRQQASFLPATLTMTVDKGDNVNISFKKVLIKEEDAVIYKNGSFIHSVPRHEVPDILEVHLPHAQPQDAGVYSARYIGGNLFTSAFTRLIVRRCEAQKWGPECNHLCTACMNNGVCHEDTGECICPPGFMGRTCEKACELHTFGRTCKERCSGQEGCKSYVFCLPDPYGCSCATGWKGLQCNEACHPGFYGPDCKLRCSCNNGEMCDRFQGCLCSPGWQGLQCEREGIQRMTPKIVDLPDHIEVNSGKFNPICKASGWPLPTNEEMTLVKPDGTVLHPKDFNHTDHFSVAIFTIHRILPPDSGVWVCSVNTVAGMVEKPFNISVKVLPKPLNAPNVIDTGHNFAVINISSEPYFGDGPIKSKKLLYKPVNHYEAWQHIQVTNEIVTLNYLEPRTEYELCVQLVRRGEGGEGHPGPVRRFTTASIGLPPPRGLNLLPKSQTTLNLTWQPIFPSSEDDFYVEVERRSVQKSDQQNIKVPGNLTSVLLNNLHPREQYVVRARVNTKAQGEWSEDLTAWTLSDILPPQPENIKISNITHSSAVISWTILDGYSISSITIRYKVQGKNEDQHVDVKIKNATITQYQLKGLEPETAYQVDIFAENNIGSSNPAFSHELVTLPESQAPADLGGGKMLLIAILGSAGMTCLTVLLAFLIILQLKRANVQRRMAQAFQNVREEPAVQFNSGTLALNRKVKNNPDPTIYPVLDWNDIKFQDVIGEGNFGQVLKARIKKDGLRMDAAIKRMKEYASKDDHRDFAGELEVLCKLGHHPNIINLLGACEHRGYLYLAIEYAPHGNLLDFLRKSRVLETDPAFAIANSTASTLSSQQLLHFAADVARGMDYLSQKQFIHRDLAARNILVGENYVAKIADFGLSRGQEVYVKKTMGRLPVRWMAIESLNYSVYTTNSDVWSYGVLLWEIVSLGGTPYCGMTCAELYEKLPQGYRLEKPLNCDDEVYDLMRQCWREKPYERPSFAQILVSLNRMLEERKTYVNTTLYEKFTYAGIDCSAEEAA
# assay-comment: In vitro protein kinase assay (radioisotopic 33P, FlashPlate)
# measurement-conditions: recombinant human kinase
reported-metric: IC50 (µM)

> print(dat)
                                   compound  result.number
1  COc1cc2c(Nc3ncc(CCNC(=O)c4ccccc4)s3)ncnc2cc1OCCCN1CCCC1 [Compound 2]              1
2  COc1cc2ncnc(Nc3ncc(CCC(=O)Nc4cccc(F)c4)s3)c2cc1OC [Compound 7]             21
3  COc1cc2c(Nc3ncc(CCC(=O)Nc4ccc(F)cc4)s3)ncnc2cc1OCCCN1CCCC1 [Compound 9]           0.43
4  COc1cc2ncnc(Nc3ncc(CCC(=O)Nc4ccc(F)cc4)s3)c2cc1OC [Compound 8]             14
